- tested-on: NS3-NS4 protease (Hepatitis C virus genotype 1a)
- Construct: Recombinant E. coli or Baculovirus full-length NS3 was diluted to 3.33 μM with assay buffer; made in house; host or cells: E. coli or baculovirus (BV) system
- assay-explanation: NS3-NS4 protease assay / NS3 inhibition assay, Section C
- Assay type: biochemical
- experimental-context: read-out: NS3-NS4 IC50
pIC50: −log10 of the molar value.

>  <molecule>
CC(C)(C)OC(=O)N[C@H]1CCCCC/C=C\[C@@H]2C[C@@]2(C(=O)NS(=O)(=O)N2CCCC2)NC(=O)[C@@H]2C[C@@H](OC(=O)N3CCc4ccccc4C3CN3CCCCC3)CN2C1=O (stereo partly drawn) [Compound 109]

>  <pIC50>
> 7.00

$$$$
>  <molecule>
CC(C)(C)OC(=O)N[C@H]1CCCCC/C=C\[C@@H]2C[C@@]2(C(=O)NS(=O)(=O)NC2CCCC2)NC(=O)[C@@H]2C[C@@H](OC(=O)N3Cc4ccccc4C3)CN2C1=O [Compound 134]

>  <pIC50>
> 7.00

$$$$
>  <molecule>
CN(C)S(=O)(=O)NC(=O)[C@@]12C[C@H]1/C=C\CCCCC[C@H](NC(=O)OC(C)(C)C)C(=O)N1C[C@H](OC(=O)N3Cc4ccc(Cl)cc4C3)C[C@H]1C(=O)N2 [Compound 113]

>  <pIC50>
> 7.00

$$$$

###

Item-by-item account of IC50
- tested-on: NS3-NS4A protease (Hepatitis C virus genotype 1a, UniProt P27958)
- Construct: Recombinant E. coli or Baculovirus full-length NS3 was diluted to 3.33 μM with assay buffer; made in house; host or cells: E. coli or baculovirus (BV) system
- Sequence (P27958 1027-1657): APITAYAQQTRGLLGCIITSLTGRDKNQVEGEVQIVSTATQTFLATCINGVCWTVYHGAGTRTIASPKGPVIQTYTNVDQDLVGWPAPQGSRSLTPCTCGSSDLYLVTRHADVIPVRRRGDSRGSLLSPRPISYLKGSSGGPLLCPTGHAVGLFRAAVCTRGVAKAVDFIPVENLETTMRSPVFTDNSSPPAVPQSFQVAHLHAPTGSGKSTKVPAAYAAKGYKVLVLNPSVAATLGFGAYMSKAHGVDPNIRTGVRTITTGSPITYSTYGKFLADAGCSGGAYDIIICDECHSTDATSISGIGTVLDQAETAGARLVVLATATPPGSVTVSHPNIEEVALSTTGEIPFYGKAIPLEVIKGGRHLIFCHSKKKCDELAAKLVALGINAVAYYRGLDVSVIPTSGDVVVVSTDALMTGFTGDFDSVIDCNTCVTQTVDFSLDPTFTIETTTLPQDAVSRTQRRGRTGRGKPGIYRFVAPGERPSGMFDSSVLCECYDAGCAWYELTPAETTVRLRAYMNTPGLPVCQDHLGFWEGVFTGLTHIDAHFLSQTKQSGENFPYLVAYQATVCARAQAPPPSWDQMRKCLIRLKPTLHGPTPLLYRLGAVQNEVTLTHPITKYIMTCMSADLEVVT
- assay-explanation: NS3-NS4A protease assay (NS3 inhibition assay, RETS1 substrate), Section B
- Format: biochemical
- experimental-context: read-out: NS3-NS4A IC50
Structures can show the parent of a compound that is named as a salt.

>  <molecule>
O=C(NC1CCCC1)N[C@H]1CCCCC/C=C\[C@@H]2C[C@@]2(C(=O)O)NC(=O)[C@@H]2C[C@@H](OC(=O)N3CCc4cccc(C(F)(F)F)c4C3)CN2C1=O [AR00304078]

>  <tested-on>
NS3-NS4A protease (Hepatitis C virus genotype 1a, UniProt P27958)

>  <IC50>
< 100 nM

$$$$
>  <molecule>
CC(C)(C)OC(=O)N[C@H]1CCCCC/C=C\[C@@H]2C[C@@]2(C(=O)NS(=O)(=O)C2CC2)NC(=O)[C@@H]2C[C@@H](OC(=O)N3Cc4ccc(N5CCOCC5)cc4C3)CN2C1=O [AR00340494]

>  <tested-on>
NS3-NS4A protease (Hepatitis C virus genotype 1a, UniProt P27958)

>  <IC50>
< 100 nM

$$$$
>  <molecule>
O=C(N[C@H]1CCCCC/C=C\[C@@H]2C[C@@]2(C(=O)O)NC(=O)[C@@H]2C[C@@H](OC(=O)N3Cc4ccccc4C3)CN2C1=O)O[C@H]1CCOC1 [AR00320075]

>  <tested-on>
NS3-NS4A protease (Hepatitis C virus genotype 1a, UniProt P27958)

>  <IC50>
< 1000 nM

$$$$
>  <molecule>
CC(C)(C)OC(=O)N[C@H]1CCCCC/C=C\[C@@H]2C[C@@]2(C(=O)O)NC(=O)[C@@H]2C[C@@H](OC(=O)N3CCc4ccc(N)cc4C3)CN2C1=O [AR00301749]

>  <tested-on>
NS3-NS4A protease (Hepatitis C virus genotype 1a, UniProt P27958)

>  <IC50>
< 1000 nM

$$$$
>  <molecule>
CC(C)(C)OC(=O)N[C@H]1CCCCC/C=C\[C@@H]2C[C@@]2(C(=O)NS(=O)(=O)C2CC2)NC(=O)[C@@H]2C[C@@H](OC(=O)N3Cc4cccc(N)c4C3)CN2C1=O [AR00334385]

>  <tested-on>
NS3-NS4A protease (Hepatitis C virus genotype 1a, UniProt P27958)

>  <IC50>
< 100 nM

$$$$
>  <molecule>
CC(C)(C)OC(=O)N[C@H]1CCCCC/C=C\[C@@H]2C[C@@]2(C(=O)NS(=O)(=O)C2CC2)NC(=O)[C@@H]2C[C@@H](NC(=O)N3CCc4ccccc4C3)CN2C1=O [AR00287266]

>  <tested-on>
NS3-NS4A protease (Hepatitis C virus genotype 1a, UniProt P27958)

>  <IC50>
< 100 nM

$$$$
>  <molecule>
Cn1c(C(=O)O)ccc1S(=O)(=O)NC(=O)[C@@]12C[C@H]1/C=C\CCCCC[C@H](NC(=O)OC(C)(C)C)C(=O)N1C[C@H](OC(=O)N3Cc4ccccc4C3)C[C@H]1C(=O)N2 [AR00364266]

>  <tested-on>
NS3-NS4A protease (Hepatitis C virus genotype 1a, UniProt P27958)

>  <IC50>
< 100 nM

$$$$
>  <molecule>
COc1ccc(S(=O)(=O)NC(=O)[C@@]23C[C@H]2/C=C\CCCCC[C@H](NC(=O)OC(C)(C)C)C(=O)N2C[C@H](OC(=O)N4Cc5ccccc5C4)C[C@H]2C(=O)N3)cc1C(=O)O [AR00365425]

>  <tested-on>
NS3-NS4A protease (Hepatitis C virus genotype 1a, UniProt P27958)

>  <IC50>
< 100 nM

$$$$
>  <molecule>
CC(C)(C)OC(=O)N[C@H]1CCCCC/C=C\[C@@H]2C[C@@]2(C(=O)NS(=O)(=O)C2CC2)NC(=O)[C@@H]2C[C@@H](OC(=O)N3Cc4ccccc4C4(CCC4)C3)CN2C1=O [AR00312024]

>  <tested-on>
NS3-NS4A protease (Hepatitis C virus genotype 1a, UniProt P27958)

>  <IC50>
< 100 nM

$$$$
>  <molecule>
COCC1c2cccc(F)c2CCN1C(=O)O[C@@H]1C[C@H]2C(=O)N[C@]3(C(=O)NS(=O)(=O)C4CC4)C[C@H]3/C=C\CCCCC[C@H](N)C(=O)N2C1 (stereo partly shown) [AR00424775, HCl salt]

>  <tested-on>
NS3-NS4A protease (Hepatitis C virus genotype 1a, UniProt P27958)

>  <IC50>
< 100 nM

$$$$

###

- tested-on: NS3-NS4 protease (Hepatitis C virus genotype 1a, UniProt P27958)
- Construct: Recombinant E. coli or Baculovirus full-length NS3 was diluted to 3.33 μM with assay buffer; made in house; host or cells: E. coli or baculovirus (BV) system
- Sequence (P27958 1027-1657): as above
- assay-explanation: NS3-NS4 protease assay / NS3 inhibition assay, Section D
- Type: biochemical
pIC50: −log10 of the molar value.
metric-name: pIC50

>  <entry-smiles>
O=C(N[C@H]1CCCCC/C=C\[C@@H]2C[C@@]2(C(=O)NS(=O)(=O)C2CC2)NC(=O)[C@@H]2C[C@@H](NC(=O)c3sc4ccccc4c3Cl)CN2C1=O)OCC1CC1

>  <metric-name>
pIC50

>  <measured-value>
> 7.00

$$$$
>  <entry-smiles>
CC(C)(C)OC(=O)N[C@H]1CCCCC/C=C\[C@@H]2C[C@@]2(C(=O)NS(=O)(=O)C2CC2)NC(=O)[C@@H]2C[C@@H](NC(=O)c3cnc4ccccc4n3)CN2C1=O

>  <metric-name>
pIC50

>  <measured-value>
> 7.00

$$$$
>  <entry-smiles>
CC(C)(C)OC(=O)N[C@H]1CCCCC/C=C\[C@@H]2C[C@@]2(C(=O)O)NC(=O)[C@@H]2C[C@@H](NC(=O)c3ccccc3)CN2C1=O

>  <metric-name>
pIC50

>  <measured-value>
> 5.00

$$$$
>  <entry-smiles>
COc1ccc(C(=O)N[C@@H]2C[C@H]3C(=O)N[C@]4(C(=O)NS(=O)(=O)C5CC5)C[C@H]4/C=C\CCCCC[C@H](NC(=O)NC4CCCC4)C(=O)N3C2)cc1C(F)(F)F

>  <metric-name>
pIC50

>  <measured-value>
> 7.00

$$$$
>  <entry-smiles>
CCc1ccc(C(=O)N[C@@H]2C[C@H]3C(=O)N[C@]4(C(=O)O)C[C@H]4/C=C\CCCCC[C@H](NC(=O)OC(C)(C)C)C(=O)N3C2)cc1

>  <metric-name>
pIC50

>  <measured-value>
> 5.00

$$$$
>  <entry-smiles>
CC(C)(C)NC(=O)N[C@H]1CCCCC/C=C\[C@@H]2C[C@@]2(C(=O)NS(=O)(=O)C2CC2)NC(=O)[C@@H]2C[C@@H](NC(=O)c3cc4ccccc4s3)CN2C1=O

>  <metric-name>
pIC50

>  <measured-value>
> 7.00

$$$$
>  <entry-smiles>
Cn1c(C(=O)N[C@@H]2C[C@H]3C(=O)N[C@]4(C(=O)NS(=O)(=O)C5CC5)C[C@H]4/C=C\CCCCC[C@H](NC(=O)OC(C)(C)C)C(=O)N3C2)cc2ccccc21

>  <metric-name>
pIC50

>  <measured-value>
> 7.00

$$$$
>  <entry-smiles>
CC(C)(C)OC(=O)N[C@H]1CCCCC/C=C\[C@@H]2C[C@@]2(C(=O)O)NC(=O)[C@@H]2C[C@@H](NC(=O)c3cc4ccccc4s3)CN2C1=O

>  <metric-name>
pIC50

>  <measured-value>
> 5.00

$$$$
>  <entry-smiles>
CC(C)(C)OC(=O)N[C@H]1CCCCC/C=C\[C@@H]2C[C@@]2(C(=O)NS(=O)(=O)C2CC2)NC(=O)[C@@H]2C[C@@H](NC(=O)c3cc4ccccc4o3)CN2C1=O

>  <metric-name>
pIC50

>  <measured-value>
> 7.00

$$$$
>  <entry-smiles>
CC(C)(C)OC(=O)N[C@H]1CCCCC/C=C\[C@@H]2C[C@@]2(C(=O)NS(=O)(=O)C2CC2)NC(=O)[C@@H]2C[C@@H](NC(=O)c3csc(-c4ccccc4Cl)n3)CN2C1=O

>  <metric-name>
pIC50

>  <measured-value>
> 7.00

$$$$
>  <entry-smiles>
COc1ccc(C(=O)N[C@@H]2C[C@H]3C(=O)N[C@]4(C(=O)O)C[C@H]4/C=C\CCCCC[C@H](NC(=O)OC(C)(C)C)C(=O)N3C2)cc1

>  <metric-name>
pIC50

>  <measured-value>
> 5.00

$$$$
